apparent KD of MS2 coat protein values for the sequences below.
test system: MS2 coat protein; experiment: apparent KD of MS2 coat protein; designed switch direction (-1 OFF switch, 1 ON switch): -1; higher = weaker reporter binding; details: input ligand: FMN 200 uM

inputSequence	apparent KD of MS2 coat protein (nM)
GUUGUUUAUGUAGGAUAUGCCUGGCGUGCCUUUGCAGAAGGACAUGAGGAUCACCCAUGUAUUGCGGUCUGCGUUCAGAUCGCU [salish99_ExNG1_r4_022] (Eterna round: R96, puzzle: Exclusion NG 1)	45.6
AUCAGCUCGUGAGGAUAUACAUGCGUGCUUCGGCACGAAUUUAAGAUCACAUGAGGAUCACCCAUGUAGAAGGCACGAGCUGAU [ENG2/3-A3] (Eterna round: R96, puzzle: Exclusion NG 2)	1880
UGGAGAUAUAAGGAUAUAUUAGGAGGAGAGGAAAUAGAAGGUGUAACAUGAGGAUCACCCAUGUACCUCAUGUA [Default title] (Eterna round: R97, puzzle: Exclusion 6)	693
GCCUCACAUGAGGAUCACCCAUGUCAGGAUAUACCCAUCCAGCGAAAUAAACGCUGUAGUAGAAGGGACAUGCA [Anlaat] (Eterna round: R97, puzzle: Exclusion 1)	40.3
GCUUUUGGGCAAGGAUAUCCUGCGCGGUUCCGGUUCGUGUCUGUCACAUGAGGAUCACCCAUGUGGGAGAAGGUGCCUGCGGUG [Design 73] (Eterna round: R96, puzzle: Exclusion NG 2)	21.5
